Reference source: PubChem BioAssay (NCI)

tested on: SF-539 CNS; assay: NCI tumour cell line growth inhibition, 48 h
QUANTITY NAME: TGI

1. O=C(CN1CCN(C(=O)c2ccco2)CC1)Nc1ccc(Cl)cc1C(=O)c1ccccc1Cl : 26.9 µM
2. Cc1cccc(N=N/C(=N\NC(=O)c2cc(Cl)ccc2O)c2ccc(N(CCC#N)CCC#N)cc2C)c1 : > 100 µM
3. Nc1n[nH]c2ccc([C@@H]3Nc4ccc5cn[nH]c5c4[C@H]4C5CCC(C5)[C@@H]34)cc12 (some centres not stated) : 3.38 µM
4. CC#CC#C/C=C1\C=CC2(OC=CC2O)O1 (configuration not stated) : > 23.3 µM
5. CCCCCCCCCCCCCCCC(=O)OC1C(O)C(O)C(O)C(O)C12CO2 (configuration not stated) : 63.9 µM
6. CCOC(=O)CC1Nc2ccccc2C12CCc1c([nH]c3ccccc13)C2C(=O)OCC (configuration not stated) : > 100 µM
7. Cn1c(=O)cc(Nc2ccc(N)cc2)[nH]c1=O : > 100 µM
8. CC(=O)OCC1OC(O[C@H]2C=C[C@@H](C(=O)OCc3ccccc3)n3c(=O)n(-c4ccccc4)c(=O)n32)C(OC(C)=O)C(OC(C)=O)C1OC(C)=O (some centres not stated) : 3.21 µM
9. N#C/C(=C\c1ccc[nH]1)C(=O)c1ccccc1 : > 100 µM
10. CC(C)CC1N=C(OCc2ccccc2)OC1=O (configuration not stated) : > 100 µM
11. COC(=O)c1c2c(cc3c1CC1(C3)Cc3cc4c(c(C(=O)OC)c3C1)CCC4)CCC2 : > 100 µM
12. Cc1cc(C)c(/C=N/NS(=O)(=O)c2ccccc2)c(C)c1 : > 100 µM
13. Cc1ncc(CBr)c(CBr)c1O : > 100 µM
14. CN(C)CC(C)(C)CN1c2ccccc2Sc2ccccc21 : 34.3 µM
15. C=C(Br)COc1ccc2c(C)cc(=O)oc2c1 : > 100 µM
16. NC1NCCC(=O)N1CCc1c[nH]c2ccccc12 (configuration not stated) : 31.5 µM
17. Nc1nc(N)c2c(n1)CCC(S(=O)(=O)c1ccc3ccccc3c1)C2 (configuration not stated) : > 100 µM
18. COc1cc2c(cc1[N+](=O)[O-])C(=O)C(Br)(Br)CCC2 : 3.87 µM
19. O=C(O)c1ccc(Nc2cnc3cc(C(F)(F)F)ccc3n2)cc1 : > 100 µM
20. C=CC(=O)N1CCC[C@@H](n2nc(-c3ccc(Oc4ccccc4)cc3)c3c(N)ncnc32)C1 : > 10 µM
21. COc1cc(CC(=O)O)c([N+](=O)[O-])cc1OC : > 100 µM
22. O=C1c2ccccc2C(=O)N1NC1=NCCN1 : > 100 µM

* * *

system: NCI-H522 lung; experiment: NCI tumour cell line growth inhibition, 48 h
QUANTITY NAME: TGI (µM)

1. COc1cc(N(CCCl)CCCl)ccc1/C=N\NC(=O)c1cccnc1 : 65.8
2. C/C(=N\O)c1cccc(Nc2c3ccccc3nc3occc23)c1 : 4.83

* * *

tested on: NCI-H460 lung
Outcomes: TRUE = active, FALSE = inactive

1. Cc1c(C(=O)c2ccccc2)[n+](=O)c2cc(F)c(F)cc2n1[O-] : FALSE
2. COCCCC(NC(=O)C(CC(C)C)NC(=O)OCc1ccc(OC)cc1)C(=O)OC (stereo not given) : FALSE
3. CC/C(=C(/c1ccc(OCCN(C)C)cc1)c1ccc(OC(=O)CCCCCCCCC(=O)c2c(C)[nH]c(/C=C3\N=C(c4ccc[nH]4)C=C3OC)c2C)cc1)c1ccccc1 : FALSE
4. C[C@]12CC[C@H]3[C@@H](CC[C@]4(O)C[C@@H](O[C@@H]5O[C@H](CO)[C@@H](O[C@@H]6OC[C@@H](O)[C@H](O)[C@H]6O)[C@H](O)[C@H]5O)CC[C@]34C=O)[C@@]1(O)CC[C@@H]2C1=CC(=O)OC1 : TRUE
5. CCC(C)C1NC(=O)C(NC(=O)C(CC(C)C)N(C)C(=O)[C@@H]2CC(O)CN2C(=O)[C@H](C)O)C(C)OC(=O)[C@H](Cc2ccc(OC)cc2)N(C)C(=O)[C@@H]2CCCN2C(=O)[C@H](CC(C)C)NC(=O)C(C)C(=O)[C@H](C(C)C)OC(=O)CC1O (stereo not given in full) : TRUE

* * *

tested on: OVCAR-4 ovarian; test: NCI tumour cell line growth inhibition, 48 h
QUANTITY NAME: TGI

1) CCOc1ccc2c(c1)C(=O)c1c-2n(CCCN=[N+]=[N-])c(=O)c2cc([N+](=O)[O-])ccc12 : > 100 µM
2) CN(Cc1cnc2nc(N)nc(N)c2n1)c1ccc(C(=O)NCCCC(=O)O)cc1 : > 100 µM
3) CCN(CC)CCSc1c(C(C)=O)c(=O)n(-c2ccccc2)c(=S)n1-c1ccccc1 : 29 µM
4) COc1ccc(Nc2cc(=O)[nH]c(=O)[nH]2)cc1 : > 100 µM
5) CC1=CC[C@@H](C(C)(C)O)C[C@@H]1O : > 5000 µM
6) COc1cc(C(=O)NN=C2c3ccccc3-c3ccccc32)cc(OC)c1OC : > 100 µM
7) CCN(/N=C1\CC2C=CCN(C2)C(=O)Cc2c1[nH]c1ccccc21)S(=O)(=O)c1ccc(C)cc1 (configuration not stated) : > 100 µM
8) CC1C(O)=C(O)c2ccccc2N1O (configuration not stated) : > 100 µM
9) OCC1OC(n2cnc3c(Cl)nc(Nc4ccc(Cl)c(Cl)c4)nc32)CC1O (configuration not stated) : 41.8 µM
10) O=C1CCC2COc3ccc(O)c1c32 (configuration not stated) : > 100 µM
11) COCCCNc1c2ccccc2nc2ccccc12 : 20.6 µM
12) c1ccc2c(c1)-c1ccccc1C2NC1=NCCO1 : > 100 µM

* * *

system: PC-3 prostate; assay: NCI tumour cell line growth inhibition, 48 h
QUANTITY NAME: TGI

1) Cn1c(=O)c2c(=O)cc(N)[nH]c2n(C)c1=O : > 100 µM
2) COc1cc(C(=O)NN=C2c3ccccc3-c3ccccc32)cc(OC)c1OC : 25 µM
3) C#CCn1c(=O)ccn(/C(=C/C(=O)OCC)C(=O)OCC)c1=O : 28.1 µM
4) O=C1c2ccccc2C(=O)N1NC1=NCCN1 : > 100 µM
5) CC(=O)N[C@@H](Cc1ccc(OP(=O)(O)O)cc1)C(=O)N[C@H]1CCC(=O)N2CCC[C@@H](C(=O)NC3CCc4ccccc43)N2C1=O (stereo not given in full) : > 25 µM
6) O=C(CC(C(=O)c1cccs1)c1ccc2c(c1)OCO2)c1ccccc1 (stereo not given) : > 100 µM
7) CCOC(=O)CC1Nc2ccccc2C12CCc1c([nH]c3ccccc13)C2C(=O)OCC (stereo not given) : > 100 µM
8) CCCCCCCCCCCCCCCC(=O)OC1C(O)C(O)C(O)C(O)C12CO2 (stereo not given) : 89.7 µM
9) COc1ccc(Nc2cc(=O)[nH]c(=O)[nH]2)cc1 : > 100 µM
10) CN(C)NC1=NS(=O)(=O)c2cc3c(=O)n(C)[nH]c3cc2S1 : > 10 µM

* * *

Each entry below carries its recorded TGI.
test system: SK-OV-3 ovarian; test: NCI tumour cell line growth inhibition, 48 h
QUANTITY NAME: TGI

1) Nc1nc(N)c2c(n1)CCC(S(=O)(=O)c1ccc3ccccc3c1)C2 (stereo not given) : > 100 µM
2) COc1ccc(C=O)cc1OS(=O)(=O)C(F)(F)C(F)(F)C(F)(F)C(F)(F)F : > 90.2 µM
3) C=C(C)COc1cc(NC(=S)OC(C)C)ccc1Cl : 38.1 µM
4) C=C(C)CCC(O)[C@](C)(O)[C@H]1[C@H](O)C[C@@]2(C)[C@@H]3CCc4c(cc(OC5OC(CO)C(O)C(O)C5O)c(O)c4C)C3(C)C(=O)C[C@]12C (stereo not given in full) : > 100 µM
5) CC(C)CC1N=C(OCc2ccccc2)OC1=O (stereo not given) : > 100 µM
6) CC1=CC[C@@H](C(C)(C)O)C[C@@H]1O : > 5000 µM
7) Nc1c(C(=O)Nc2cccc(C(F)(F)F)c2)sc2nc3c(cc12)CCCCCC3 : 6.29 µM
8) Cc1ccc(NC(=O)CC2SC(=Nc3ccc(Cl)cc3)NC2=O)cc1C (stereo not given) : > 66.1 µM
9) CN(C)C1CN(C(=O)c2cc(-c3ccc4ncnc(N5CCc6cc(F)c(Cl)cc65)c4c3)cnc2N)C1 : > 100 µM
10) CC#CC#C/C(=C/C=CC(=O)OC)SC : > 100 µM

* * *

Each entry below carries its recorded TGI.
system: HCT-15 colon; assay: NCI tumour cell line growth inhibition, 48 h
QUANTITY NAME: TGI

1. C=C(C)CCC(O)[C@](C)(O)[C@H]1[C@H](O)C[C@@]2(C)[C@@H]3CCc4c(cc(OC5OC(CO)C(O)C(O)C5O)c(O)c4C)C3(C)C(=O)C[C@]12C (some centres undefined) : > 100 µM
2. C=C(Br)COc1ccc2c(C)cc(=O)oc2c1 : > 100 µM
3. N#C/C(=C\c1ccc[nH]1)C(=O)c1ccccc1 : > 100 µM
4. CC(C)(C)CI : > 100 µM
5. CC1OC(CO)(n2cnc3c(N)ncnc32)C(O)C1O (centres undefined) : > 100 µM
6. O=C(O)c1ccc(/C=N/N=C2c3ccccc3-c3ccccc32)cc1 : > 100 µM
7. O=C(O)CCC1c2[nH]c3ccccc3c2CCN1Cc1ccccc1 (centres undefined) : > 100 µM
8. Cc1cc(-c2cc(OC(=O)c3ccccc3)ccc2Cl)cc2nnc(Nc3ccc(OCCN4CCCC4)cc3)nc12 : 0.393 µM
9. O=C(CC(C(=O)c1cccs1)c1ccc2c(c1)OCO2)c1ccccc1 (centres undefined) : > 100 µM
10. COc1ccc(/C=C/C(=O)/C=C(O)/C=C/c2ccc(OC)c(OC)c2)cc1OC : > 100 µM
11. O=C(O)c1ccc(Nc2cnc3cc(C(F)(F)F)ccc3n2)cc1 : 83.5 µM
12. O=C(CN1CCN(C(=O)c2ccco2)CC1)Nc1ccc(Cl)cc1C(=O)c1ccccc1Cl : 39.7 µM
13. CSC1=Nc2ccccc2N=C(c2ccccc2)C1 : > 100 µM
14. C=CC(=O)N1CCC[C@@H](n2nc(-c3ccc(Oc4ccccc4)cc3)c3c(N)ncnc32)C1 : > 10 µM
15. c1cc(CSc2ncnc3nc[nH]c23)ccn1 : > 100 µM
16. Nc1cc(N)c2nc(NCCc3ccc(Cl)c(Cl)c3)cnc2c1 : 27.3 µM
17. C[C@]12CC[C@H]3[C@@H](CC[C@]4(O)C[C@@H](O[C@@H]5O[C@H](CO)[C@@H](O[C@@H]6OC[C@@H](O)[C@H](O)[C@H]6O)[C@H](O)[C@H]5O)CC[C@]34C=O)[C@@]1(O)CC[C@@H]2C1=CC(=O)OC1 : 5.12 µM
18. c1ccc(CC(Nc2cccnc2)c2ccccc2)cc1 (centres undefined) : > 100 µM
19. Cc1c(Cl)c(C)c(Cl)c(O)c1Cl : 75.6 µM
